So I've got a bunch of compounds here, and I need their ΔTm at 25 µM values.
TESTED SYSTEM: recombinant HSF1 DNA-binding domain (DBD) (Homo sapiens, UniProt Q00613)
Sequence (Q00613 15-120): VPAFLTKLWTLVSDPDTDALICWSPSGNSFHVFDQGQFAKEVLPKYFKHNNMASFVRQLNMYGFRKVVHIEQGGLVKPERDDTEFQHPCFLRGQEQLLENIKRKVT
ASSAY TEXT: Differential Scanning Fluorimetry (DSF), HSF1 DBD melting temperature
CONDITION DESCRIPTION: Table 1; 5 μM HSF1 DBD, 25PM Compound; positive = stabilizes, negative = destabilizes HSF1
Answer with a number only, understood to be in °C.

Query: Form: Entry = COc1cc(C(=O)Oc2c(Cl)cc(Cl)cc2/C=N\c2cccc(C(F)(F)F)c2)cc(OC)c1OC | System = recombinant HSF1 DNA-binding domain (DBD) (Homo sapiens, UniProt Q00613) | ΔTm at 25 µM = ____
Reply: -7.24

Query: Form: Entry = N#CN=C(Nc1ccc(F)cc1)Nc1ccc(Cl)c([N+](=O)[O-])c1 | System = recombinant HSF1 DNA-binding domain (DBD) (Homo sapiens, UniProt Q00613) | ΔTm at 25 µM = ____
Reply: 0.75

Query: Form: Entry = O=C(Nc1ccc(F)c(F)c1)Nc1ccc(Cl)c(C(F)(F)F)c1 | System = recombinant HSF1 DNA-binding domain (DBD) (Homo sapiens, UniProt Q00613) | ΔTm at 25 µM = ____
Reply: 3.33

Query: Form: Entry = Cc1cc(/C=N/Nc2nc3ccccc3s2)cc(C)c1O | System = recombinant HSF1 DNA-binding domain (DBD) (Homo sapiens, UniProt Q00613) | ΔTm at 25 µM = ____
Reply: 0.49
